Sourced from ChEMBL document CHEMBL4196177

test system: Beta-crystallin B2 (Homo sapiens), P43320 [V187E]; assay: Inhibition of beta-crystallin B2 V187E mutant (unknown origin)-induced intracellular protein aggregation expressed in human HLE-B3 cells at 0.4 uM incubated for 6 to 8 hrs by fluorescence microscopy relative to untreated control; assay type: cell-based
Sequence (P43320 whole entry V187E): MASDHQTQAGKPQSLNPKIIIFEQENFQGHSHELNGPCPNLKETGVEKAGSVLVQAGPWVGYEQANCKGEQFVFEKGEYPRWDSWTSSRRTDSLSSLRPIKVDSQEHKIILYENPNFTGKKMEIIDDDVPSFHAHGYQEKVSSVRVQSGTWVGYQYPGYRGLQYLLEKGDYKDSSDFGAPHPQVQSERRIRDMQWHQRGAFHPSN
Active and inactive are the calls of the source. The calls are words filed in the database; no cut-off is given here.
Classes used: active, inactive

>>> discrete_label("C[C@H](CCCC(C)(C)O)[C@H]1CC[C@@]2(C)C3=C(CC[C@]12C)[C@@]1(C)CC[C@H](O)C(C)(C)[C@@H]1CC3")
"active"
>>> discrete_label("C[C@H](CCCC(C)(C)O)[C@H]1CC[C@@]2(C)C3=C(CC[C@]12C)[C@@]1(C)C[C@@H](F)[C@@H](O)C(C)(C)[C@@H]1CC3")
"active"
>>> discrete_label("C[C@H](CCCC(C)(C)O)[C@H]1CC[C@@]2(C)C3=C(CC[C@]12C)[C@@]1(C)C[C@@H](F)[C@H](O)C(C)(C)[C@@H]1CC3")
"active"
>>> discrete_label("C[C@H](CCCC(C)(C)O)[C@H]1CC[C@@]2(C)C3=C(CC[C@]12C)[C@@]1(C)CCC(=O)C(C)(C)[C@@H]1CC3")
"active"
>>> discrete_label("C[C@H](CCCC(C)(C)O)[C@H]1CC[C@@]2(C)[C@@]34CC[C@H]5C(C)(C)/C(=N/O)CC[C@]5(C)[C@]3(CC[C@]12C)O4")
"inactive"
>>> discrete_label("C[C@H](CCCC(C)(C)O)[C@H]1CC[C@@]2(C)C3=CC[C@H]4C(C)(C)[C@@H](O)CC[C@]4(C)C3=CC[C@]12C")
"active"

====

System: Alpha-crystallin A chain (Homo sapiens), P02489 [Y118D]
Sequence (whole entry): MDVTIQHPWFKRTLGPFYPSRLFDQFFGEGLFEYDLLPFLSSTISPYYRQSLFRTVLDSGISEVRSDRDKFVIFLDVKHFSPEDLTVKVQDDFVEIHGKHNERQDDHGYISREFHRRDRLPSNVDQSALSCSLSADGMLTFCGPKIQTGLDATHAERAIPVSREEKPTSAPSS
Assay: Inhibition of alpha-crystallin A Y118D mutant (unknown origin)-induced intracellular protein aggregation expressed in human HeLa cells at 0.4 uM incubated for 6 to 8 hrs by fluorescence microscopy relative to untreated control
Format: cell-based
The source made the active and inactive calls. The calls are words filed in the database; no cut-off is given here.
RECORDED_METRIC: inhibition

>>> recorded_value("C[C@H](CCCC(C)(C)O)[C@H]1CC[C@@]2(C)C3=C(CC[C@]12C)[C@@]1(C)C[C@@H](F)[C@@H](O)C(C)(C)[C@@H]1CC3")
"Active"
>>> recorded_value("C[C@H](CCCC(C)(C)O)[C@H]1CC[C@@]2(C)C3=C(CC[C@]12C)[C@@]1(C)CCC(=O)C(C)(C)[C@@H]1CC3")
"Active"
>>> recorded_value("C[C@H](CCCC(C)(C)O)[C@H]1CC[C@@]2(C)C3=C(CC[C@]12C)[C@@]1(C)C[C@@H](F)[C@H](O)C(C)(C)[C@@H]1CC3")
"Active"

====

system: Alpha-crystallin A chain (Homo sapiens), P02489 [Y118D]; assay: Inhibition of alpha-crystallin A Y118D mutant (unknown origin)-induced intracellular protein aggregation expressed in human HeLa cells at 4 uM incubated for 6 to 8 hrs by fluorescence microscopy relative to untreated control; format: cell-based
Activity calls are given as the source filed them. The calls are words filed in the database; no cut-off is given here.
RECORDED_METRIC: inhibition

>>> recorded_value("C[C@H](CCCC(C)(C)O)[C@H]1CC[C@@]2(C)C3=C(CC[C@]12C)[C@@]1(C)CCC(=O)C(C)(C)[C@@H]1CC3")
"Active"
>>> recorded_value("C[C@H](CCCC(C)(C)O)[C@H]1CC[C@@]2(C)C3=CC[C@H]4C(C)(C)[C@@H](O)CC[C@]4(C)C3=CC[C@]12C")
"Active"
>>> recorded_value("C[C@H](CCCC(C)(C)O)[C@H]1CC[C@@]2(C)C3=C(CC[C@]12C)[C@@]1(C)CC[C@H](O)C(C)(C)[C@@H]1CC3")
"Active"

====

system: Alpha-crystallin A chain (Homo sapiens), P02489 [Y118D]; assay: Inhibition of alpha-crystallin A Y118D mutant (unknown origin)-induced intracellular protein aggregation expressed in human HeLa cells at 4 uM incubated for 6 to 8 hrs by fluorescence microscopy relative to untreated control; type: cell-based
Active and inactive are the calls of the source. The calls are words filed in the database; no cut-off is given here.
Classes used: true (1) (active), false (0) (inactive)

>>> discrete_label("C[C@H](CCCC(C)(C)O)[C@H]1CC[C@@]2(C)C3=C(CC[C@]12C)[C@@]1(C)C[C@@H](F)[C@H](O)C(C)(C)[C@@H]1CC3")
"true (1)"
>>> discrete_label("C[C@H](CCCC(C)(C)O)[C@H]1CC[C@@]2(C)[C@@]34CC[C@H]5C(C)(C)/C(=N/O)CC[C@]5(C)[C@]3(CC[C@]12C)O4")
"false (0)"
>>> discrete_label("C[C@H](CCCC(C)(C)O)[C@H]1CC[C@@]2(C)C3=C(CC[C@]12C)[C@@]1(C)C[C@@H](F)[C@@H](O)C(C)(C)[C@@H]1CC3")
"true (1)"

====

test system: Beta-crystallin B2 (Homo sapiens), P43320 [V187E]; assay: Inhibition of beta-crystallin B2 V187E mutant (unknown origin)-induced intracellular protein aggregation expressed in human HeLa cells at 4 uM incubated for 6 to 8 hrs by fluorescence microscopy relative to untreated control; type: cell-based
The source made the active and inactive calls. The calls are words filed in the database; no cut-off is given here.
Classes used: active, inactive

>>> discrete_label("C[C@H](CCCC(C)(C)O)[C@H]1CC[C@@]2(C)C3=C(CC[C@]12C)[C@@]1(C)C[C@@H](F)[C@H](O)C(C)(C)[C@@H]1CC3")
"active"
>>> discrete_label("C[C@H](CCCC(C)(C)O)[C@H]1CC[C@@]2(C)C3=CC[C@H]4C(C)(C)[C@@H](O)CC[C@]4(C)C3=CC[C@]12C")
"active"
>>> discrete_label("C[C@H](CCCC(C)(C)O)[C@H]1CC[C@@]2(C)C3=C(CC[C@]12C)[C@@]1(C)CC[C@H](O)C(C)(C)[C@@H]1CC3")
"active"
>>> discrete_label("C[C@H](CCCC(C)(C)O)[C@H]1CC[C@@]2(C)C3=C(CC[C@]12C)[C@@]1(C)C[C@@H](F)[C@@H](O)C(C)(C)[C@@H]1CC3")
"active"
>>> discrete_label("C[C@H](CCCC(C)(C)O)[C@H]1CC[C@@]2(C)C3=C(CC[C@]12C)[C@@]1(C)CCC(=O)C(C)(C)[C@@H]1CC3")
"active"
>>> discrete_label("C[C@H](CCCC(C)(C)O)[C@H]1CC[C@@]2(C)[C@@]34CC[C@H]5C(C)(C)/C(=N/O)CC[C@]5(C)[C@]3(CC[C@]12C)O4")
"inactive"

====

System: Alpha-crystallin B chain (Homo sapiens), P02511 [R120G]
Sequence (whole entry): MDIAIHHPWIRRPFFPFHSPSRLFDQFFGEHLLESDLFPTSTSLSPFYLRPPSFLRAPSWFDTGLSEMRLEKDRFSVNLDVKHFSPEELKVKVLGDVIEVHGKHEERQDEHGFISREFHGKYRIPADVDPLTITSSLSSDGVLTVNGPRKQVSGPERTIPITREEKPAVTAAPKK
Assay: Inhibition of alpha-crystallin B R120G mutant (unknown origin)-induced cytotoxicity in human HeLa cells assessed as increase in cell viability at 0.04 to 4 uM incubated for 12 hrs by CCK8 assay
Format: cell-based
Activity calls are given as the source filed them. The calls are words filed in the database; no cut-off is given here.
Classes used: 1 (yes) = active, 0 (no) = inactive

>>> discrete_label("C[C@H](CCCC(C)(C)O)[C@H]1CC[C@@]2(C)C3=C(CC[C@]12C)[C@@]1(C)C[C@@H](F)[C@@H](O)C(C)(C)[C@@H]1CC3")
"1 (yes)"
>>> discrete_label("C[C@H](CCCC(C)(C)O)[C@H]1CC[C@H]2[C@@H]3CC=C4C[C@@H](O)CC[C@]4(C)[C@H]3CC[C@]12C")
"0 (no)"
>>> discrete_label("C[C@H](CCCC(C)(C)O)[C@H]1CC[C@@]2(C)C3=C(CC[C@]12C)[C@@]1(C)CCC(=O)C(C)(C)[C@@H]1CC3")
"1 (yes)"
>>> discrete_label("C[C@H](CCCC(C)(C)O)[C@H]1CC[C@@]2(C)C3=CC[C@H]4C(C)(C)[C@@H](O)CC[C@]4(C)C3=CC[C@]12C")
"1 (yes)"
>>> discrete_label("C[C@H](CCCC(C)(C)O)[C@H]1CC[C@@]2(C)C3=C(CC[C@]12C)[C@@]1(C)C[C@@H](F)[C@H](O)C(C)(C)[C@@H]1CC3")
"1 (yes)"
>>> discrete_label("C[C@H](CCCC(C)(C)O)[C@H]1CC[C@@]2(C)C3=C(CC[C@]12C)[C@@]1(C)CC[C@H](O)C(C)(C)[C@@H]1CC3")
"1 (yes)"
